# assayProcedure: Metabolic stability in human liver microsomes
# Type: in vitro ADME
# conditionSet: some cells add hours in brackets
metric: Metabolism HLM (min)

| compound | Metabolism HLM, min |
| --- | --- |
| CNC(=O)[C@H]1C[C@H](n2c(-c3cc(OC)c(OC)c(OC)c3)nc3ccc(C(=O)NCCCN4CCN(c5ccccc5)CC4)cc32)C1 [CDD-2235] | 9.7 |

I: COc1cc(-c2nc3ccc(C(=O)NCCC(=O)N4CCN(c5cccc(C)c5C)CC4)cc3n2C2CCC2)cc(OC)c1OC [CDD-2467]
II: CNC(=O)[C@H]1C[C@H](n2c(-c3ccc(OC)c(OC)c3)nc3ccc(C(=O)NCCCN4CCN(c5cccc(C)c5C)CC4)cc32)C1 [CDD-2421]
Ask: Hello, I am sorting some records. Could you say if I or II has the smaller Metabolism HLM value? Which one? Tell me its label.
Reply: II

Each recorded value in this set is attributed to patent US20260217660A1.
